Source of measurements: ChEMBL document CHEMBL3352491

system-under-test: Lipoxygenase (Glycine max) (UniProt Q39829)
method-description: Inhibition of soybean LOX using sodium linoleate as substrate at 100 uM by spectrophotometry
Kindly supply the reported inhibition values for the records listed here.
In your response, put the unit directly after the numeric value.

Record excerpt, results attached:
- COc1cc(NC(C)CCCNC(=O)NNC(=O)NCCCCCO)c2ncccc2c1 (stereo not given): 4%
- NNC(=O)NC(c1ccccc1)c1ccc(Cl)cc1 (stereo not given): 9%
- COc1cc(NC(C)CCCNC(=O)NNC(=O)NC(CO)(CO)CO)c2ncccc2c1 (stereo not given): 6%
- COc1cc(NC(C)CCCNC(=O)Nc2ccc(Cl)c(C(F)(F)F)c2)c2ncccc2c1 (stereo not given): 43%
- COc1cc(NC(C)CCCNC(=O)NN)c2ncccc2c1 (stereo not given): 42%
- COc1cc(NC(C)CCCNC(=O)NNC(=O)NCCCC(C)Nc2cc(OC)cc3cccnc23)c2ncccc2c1 (stereo not given): 31%
- COc1cc(NC(C)CCCNC(=O)NNC(=O)N(C)C(c2ccccc2)c2ccccc2)c2ncccc2c1 (stereo not given): 44%
- O=C1NCCN1C(c1ccccc1)(c1ccccc1)c1ccccc1: 6%

Would you mind giving inhibition for every compound in the list below?
1. CC(Cc1ccc(O)c(O)c1)C(C)Cc1ccc(O)c(O)c1 (stereo not given) [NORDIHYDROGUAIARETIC ACID]
2. O=C(NC(c1ccccc1)c1ccc(Cl)cc1)NC(c1ccccc1)c1ccc(Cl)cc1 (stereo not given)

Result:
1. 84%
2. 38%

* * *

method-description: Cytostatic activity against human Molt4/C8 cells assessed as growth inhibition after 3 to 4 days by MTT assay
Type: functional, cell-based
assay-conditions: MOLT-4
reported-metric: IC50 (µM)
Numbers only, in µM.

* COc1cc(NC(C)CCCNC(=O)NNC(=O)NCCNC(c2ccccc2)(c2ccccc2)c2ccccc2)c2ncccc2c1 (configuration not stated) | 8
* CN(C(=O)n1nnc2ccccc21)C(c1ccccc1)c1ccccc1 | 28
* COc1cc(NC(C)CCCNC(=O)NNC(=O)N(C)C(c2ccccc2)c2ccccc2)c2ncccc2c1 (configuration not stated) | 19

# input for lookup
Query: Retrieve IC50 measured for COc1cc(NC(C)CCCNC(=O)NNC(=O)Nc2ccc(Cl)c(C(F)(F)F)c2)c2ncccc2c1 (configuration not stated) and print it.
Result: 19

* * *

method-description: Antioxidant activity assessed as DPPH scavenging activity at 100 uM after 60 mins by spectrophotometry
Format: physicochemical
assay-conditions: 1 h
reported-metric: Activity (%)
One number for each entry, in %.

Record excerpt, results attached:
• CC(Cc1ccc(O)c(O)c1)C(C)Cc1ccc(O)c(O)c1 (centres undefined) [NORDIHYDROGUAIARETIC ACID] = 91
• COc1ccc(C(=NNC(=O)NNC(=O)NCCCC(C)Nc2cc(OC)cc3cccnc23)c2ccc(OC)cc2)cc1 (centres undefined) = 84
• COc1cc(NC(C)CCCNC(=O)NNC(=O)NC(CO)(CO)CO)c2ncccc2c1 (centres undefined) = 40
• COc1cc(NC(C)CCCNC(=O)N(C)C(c2ccccc2)c2ccccc2)c2ncccc2c1 (centres undefined) = 16

Would you mind giving Activity for every compound in the list below?
1. COc1ccc(/C(=N/NC(=O)NCCCC(C)Nc2cc(OC)cc3cccnc23)c2ccccc2)cc1 (centres undefined)
2. COc1ccc(C(=NNC(=O)NCCCC(C)Nc2cc(OC)cc3cccnc23)c2ccc(OC)cc2)cc1 (centres undefined)
3. COc1cc(NC(C)CCCNC(=O)NCCNC(c2ccccc2)(c2ccccc2)c2ccccc2)c2ncccc2c1 (centres undefined)
4. COc1cc(NC(C)CCCNC(=O)NNC(=O)NCCCO)c2ncccc2c1 (centres undefined)
5. CN(C(=O)NN)C(c1ccccc1)c1ccccc1
6. COc1cc(NC(C)CCCNC(=O)NNC(=O)N(CCO)CCO)c2ncccc2c1 (centres undefined)
7. COc1cc(NC(C)CCCNC(=O)NNC(=O)Nc2ccc(Cl)c(C(F)(F)F)c2)c2ncccc2c1 (centres undefined)
8. COc1cc(NC(C)CCCNC(=O)NC(c2ccccc2)c2ccc(Cl)cc2)c2ncccc2c1 (centres undefined)

Result:
1. 26
2. 14
3. 12
4. 20
5. 47
6. 45
7. 90
8. 24

* * *

Kindly supply the reported inhibition values for the records listed here.
system-under-test: Lipoxygenase (Glycine max)
method-description: Inhibition of soybean LOX using sodium linoleate as substrate at 100 uM by spectrophotometry
Numbers only, in %.

Record excerpt, results attached:
• O=C(NC(c1ccccc1)c1ccc(Cl)cc1)n1nnc2ccccc21 (stereo not drawn) = 28
• COc1cc(NC(C)CCCNC(=O)NCCCC(C)Nc2cc(OC)cc3cccnc23)c2ncccc2c1 (stereo not drawn) = 6

# input for lookup
Query: Retrieve inhibition measured for COc1cc(NC(C)CCCNC(=O)NNC(=O)N(CCO)CCO)c2ncccc2c1 (stereo not drawn) and print it.
Result: 30

* * *

method-description: Antioxidant activity assessed as DPPH scavenging activity at 100 uM after 20 mins by spectrophotometry
Assay type: physicochemical
reported-metric: Activity

Record excerpt, results attached:
- COc1cc(NC(C)CCCNC(=O)NNC(=O)NCCCO)c2ncccc2c1 (centres undefined): 9%
- COc1ccc(/C(=N/NC(=O)NNC(=O)NCCCC(C)Nc2cc(OC)cc3cccnc23)c2ccccc2)cc1 (centres undefined): 47%
- COc1cc(NC(C)CCCNC(=O)NNC(=O)NCCNC(c2ccccc2)(c2ccccc2)c2ccccc2)c2ncccc2c1 (centres undefined): 30%
- CCOC(=O)NC(c1ccccc1)c1ccc(Cl)cc1 (centres undefined): Not Active
- CN(C(=O)n1nnc2ccccc21)C(c1ccccc1)c1ccccc1: 3%

Would you mind giving Activity for every compound in the list below?
1. COc1cc(NC(C)CCCNC(=O)NC(c2ccccc2)c2ccc(Cl)cc2)c2ncccc2c1 (centres undefined)
2. O=C1NCCN1C(c1ccccc1)(c1ccccc1)c1ccccc1
3. COc1cc(NC(C)CCCNC(=O)NNC(=O)N(CCO)CCO)c2ncccc2c1 (centres undefined)
4. CN(C(=O)NN)C(c1ccccc1)c1ccccc1
5. COc1cc(NC(C)CCCNC(=O)NNC(=O)Nc2ccc(Cl)c(C(F)(F)F)c2)c2ncccc2c1 (centres undefined)
6. COc1cc(NC(C)CCCNC(=O)NNC(=O)NCCCC(C)Nc2cc(OC)cc3cccnc23)c2ncccc2c1 (centres undefined)
7. NNC(=O)NC(c1ccccc1)c1ccc(Cl)cc1 (centres undefined)
8. COc1cc(NC(C)CCCNC(=O)N(C)C(c2ccccc2)c2ccccc2)c2ncccc2c1 (centres undefined)

Result:
["12%", "Not Active", "25%", "24%", "64%", "18%", "14%", "20%"]

Would you mind giving Activity for every compound in the list below?
1. COc1ccc(/C(=N/NC(=O)NCCCC(C)Nc2cc(OC)cc3cccnc23)c2ccccc2)cc1 (centres undefined)
2. COc1cc(NC(C)CCCNC(=O)NN)c2ncccc2c1 (centres undefined)
3. COc1cc(NC(C)CCCNC(=O)NNC(=O)N(C)C(c2ccccc2)c2ccccc2)c2ncccc2c1 (centres undefined)
4. COc1cc(NC(C)CCCNC(=O)NNC(=O)NCCCCCO)c2ncccc2c1 (centres undefined)
5. COc1cc(NC(C)CCCNC(=O)NNC(=O)NC(CO)(CO)CO)c2ncccc2c1 (centres undefined)
6. CCOC(=O)N(C)C(c1ccccc1)c1ccccc1
7. COc1cc(NC(C)CCCNC(=O)NNC(=O)NC(c2ccccc2)c2ccc(Cl)cc2)c2ncccc2c1 (centres undefined)

Result:
1: 19%; 2: 61%; 3: 44%; 4: 14%; 5: 18%; 6: Not Active; 7: 30%

Would you mind giving Activity for every compound in the list below?
1. O=C(NC(c1ccccc1)c1ccc(Cl)cc1)NC(c1ccccc1)c1ccc(Cl)cc1 (centres undefined)
2. CC(Cc1ccc(O)c(O)c1)C(C)Cc1ccc(O)c(O)c1 (centres undefined) [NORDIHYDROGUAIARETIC ACID]

Result:
["Not Active", "80%"]

Would you mind giving Activity for every compound in the list below?
1. COc1cc(NC(C)CCCNC(=O)NCCNC(c2ccccc2)(c2ccccc2)c2ccccc2)c2ncccc2c1 (centres undefined)
2. COc1cc(NC(C)CCCNC(=O)Nc2ccc(Cl)c(C(F)(F)F)c2)c2ncccc2c1 (centres undefined)

Result:
["Not Active", "20%"]

* * *

Kindly supply the reported pIC50 values for the records listed here.
method-description: Cytostatic activity against human Molt4/C8 cells assessed as growth inhibition after 3 to 4 days by MTT assay
Type: functional, cell-based
assay-conditions: MOLT-4
Give bare numbers, as −log10 of the molar value.

Record excerpt, results attached:
- COc1cc(NC(C)CCCNC(=O)Nc2ccc(Cl)c(C(F)(F)F)c2)c2ncccc2c1 (stereo unspecified): 5.47
- COc1ccc(C(=NNC(=O)NNC(=O)NCCCC(C)Nc2cc(OC)cc3cccnc23)c2ccc(OC)cc2)cc1 (stereo unspecified): 4.92
- O=C(NC(c1ccccc1)c1ccc(Cl)cc1)n1nnc2ccccc21 (stereo unspecified): 3.75
- O=C1NCCN1C(c1ccccc1)(c1ccccc1)c1ccccc1: 4.68
- COc1cc(NC(C)CCCNC(=O)N(C)C(c2ccccc2)c2ccccc2)c2ncccc2c1 (stereo unspecified): 5.00
- COc1ccc(/C(=N/NC(=O)NNC(=O)NCCCC(C)Nc2cc(OC)cc3cccnc23)c2ccccc2)cc1 (stereo unspecified): 4.92
- COc1cc(NC(C)CCCNC(=O)NNC(=O)NC(c2ccccc2)c2ccc(Cl)cc2)c2ncccc2c1 (stereo unspecified): 5.02
- COc1cc(NC(C)CCCNC(=O)NCCNC(c2ccccc2)(c2ccccc2)c2ccccc2)c2ncccc2c1 (stereo unspecified): 3.68

Would you mind giving pIC50 for every compound in the list below?
1. CN(C(=O)NN)C(c1ccccc1)c1ccccc1
2. CCOC(=O)N(C)C(c1ccccc1)c1ccccc1

Result:
1: 3.84; 2: 3.98
